- measurement-protocol: Biodistribution in Jurkat tumor-bearing CB-17 SCID mice
- Assay type: in vivo
- measurement-context: female, CB-17 SCID, mouse, in vivo, iv, total radioactivity, Liver; 1 h p.i.; Jurkat xenograft, CB-17 SCID female mice; read-out: % iD/g Liver
Positions of bridges follow the written chain, without caps; N, C: chain ends. Non-standard residues stand in square brackets, D forms with d. Residues, ends and D or L forms follow the SMILES beside them. Groups on a side chain read outwards from the residue. Chains are numbered I, II in the order given. *: point of attachment. X6 = CN1/C(=C/C=C/C=C/C2=[N+](CCCCCC(=O)*)c3ccc(S(=O)(=O)[O-])cc3C2(C)C)C(C)(C)c2cc(S(=O)(=O)O)ccc21; Tyr(3-I) = N[C@@H](Cc1ccc(O)c(I)c1)C(=O)O; 2Nal = N[C@@H](Cc1ccc2ccccc2c1)C(=O)O; d2Nal = N[C@H](Cc1ccc2ccccc2c1)C(=O)O; dNMeOrn = CN[C@H](CCCN)C(=O)O; Mercaptoacetyl = O=C(CS)*; 4Abz = Nc1ccc(C(=O)O)cc1; X1 = NCCNCC(CNCCN)C(=O)*; dDap = NC[C@@H](N)C(=O)O
Can you tell me tissue uptake at 1 h for the items I'm about to list?
Output spec: scalar in %ID/g, unitless text.

Given C[C@@H](NC(=O)[C@@H](CCCNC(=N)N)NC(=O)[C@@H](Cc1c[nH]cn1)NC(=O)[C@@H](CO)NC(=O)[C@@H](CO)NC(=O)[C@@H](CO)NC(=O)CS)C(=O)Nc1ccc(C(=O)NCCC[C@@H]2C(=O)N[C@@H](CCCNC(=N)N)C(=O)N[C@@H](Cc3ccc4ccccc4c3)C(=O)NCC(=O)N[C@H](Cc3ccc(O)cc3)C(=O)N2C)cc1 [Tc-CXCR4-5] (I: Mercaptoacetyl-[dS][dS][dS][dH][dR][dA][4Abz] / II: cyclo([dY][dNMeOrn]R[2Nal]G); amide I:C-II:2) , state its recorded tissue uptake at 1 h.
2.42

Given C[C@@H](NC(=O)[C@@H](CCCNC(=N)N)NC(=O)[C@@H](CN)NC(=O)CCCCC[N+]1=C(/C=C/C=C/C=C2/N(C)c3ccc(S(=O)(=O)O)cc3C2(C)C)C(C)(C)c2cc(S(=O)(=O)[O-])ccc21)C(=O)Nc1ccc(C(=O)NCCC[C@@H]2C(=O)N[C@@H](CCCNC(=N)N)C(=O)N[C@H](Cc3ccc4ccccc4c3)C(=O)NCC(=O)N[C@@H](Cc3ccc(O)c(I)c3)C(=O)N2C)cc1 [CXCR4-OI-2] (cyclo([Tyr(3-I)][dNMeOrn]([4Abz-dA-dR-dDap-X6])R[d2Nal]G)) , state its recorded tissue uptake at 1 h.
35.3

Given C[C@@H](NC(=O)[C@@H](CCCNC(=N)N)NC(=O)[C@@H](CN)NC(=O)C(CNCCN)CNCCN)C(=O)Nc1ccc(C(=O)NCCC[C@@H]2C(=O)N[C@@H](CCCNC(=N)N)C(=O)N[C@@H](Cc3ccc4ccccc4c3)C(=O)NCC(=O)N[C@H](Cc3ccc(O)cc3)C(=O)N2C)cc1 [Tc-CXCR4-14] (cyclo([dY][dNMeOrn]([4Abz-dA-dR-dDap-X1])R[2Nal]G)) , state its recorded tissue uptake at 1 h.
7.67
